- system name: T1, Fusion protein of extracellular domain of human TIGIT and human IgG1 Fc fragment (human TIGIT ECD-hFc) (human)
- T1 construct: The entry includes the signal peptide (limits not recoverable) and the human IgG1 Fc
- T1 sequence (chain, as listed by the source limits assumed): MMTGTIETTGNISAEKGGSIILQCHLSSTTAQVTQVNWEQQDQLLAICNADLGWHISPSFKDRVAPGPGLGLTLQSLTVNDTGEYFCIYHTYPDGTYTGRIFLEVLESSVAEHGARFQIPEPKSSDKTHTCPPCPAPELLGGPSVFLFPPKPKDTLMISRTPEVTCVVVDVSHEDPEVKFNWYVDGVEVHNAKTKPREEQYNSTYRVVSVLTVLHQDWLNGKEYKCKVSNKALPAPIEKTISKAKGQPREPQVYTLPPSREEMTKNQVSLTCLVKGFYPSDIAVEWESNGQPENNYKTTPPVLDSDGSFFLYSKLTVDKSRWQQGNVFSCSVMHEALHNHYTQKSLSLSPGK
- protocol: blocking of TIGIT ECD-hFc binding to CHO-K1 CD155 cells
Could you mark each record y if its IC50 falls strictly under 0.4 nM, and n if it equals or exceeds it?

Illustrative cases are given below, each with its answer.
binder: TIGIT-006-H1L1 (antibody, V domains shown, Humanized anti-TIGIT antibody) VH: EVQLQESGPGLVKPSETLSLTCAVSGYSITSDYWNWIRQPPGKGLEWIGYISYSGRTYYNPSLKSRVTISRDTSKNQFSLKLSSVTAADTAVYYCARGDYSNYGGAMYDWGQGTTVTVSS VL: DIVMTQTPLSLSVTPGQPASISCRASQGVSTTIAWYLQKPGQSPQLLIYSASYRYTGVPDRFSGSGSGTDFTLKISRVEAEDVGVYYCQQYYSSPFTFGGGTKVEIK
group label: n
//
binder: TIGIT-006-H5L2 (antibody, V domains shown, Humanized anti-TIGIT antibody) VH: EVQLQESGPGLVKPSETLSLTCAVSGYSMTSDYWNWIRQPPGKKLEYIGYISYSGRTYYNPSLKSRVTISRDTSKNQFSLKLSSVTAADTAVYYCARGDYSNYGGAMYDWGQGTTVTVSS VL: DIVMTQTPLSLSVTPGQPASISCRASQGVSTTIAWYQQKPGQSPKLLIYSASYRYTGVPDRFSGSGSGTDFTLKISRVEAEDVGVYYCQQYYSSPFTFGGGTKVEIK
group label: n
//
binder: TIGIT-002-H3L3 (antibody, V domains shown, Humanized anti-TIGIT antibody) VH: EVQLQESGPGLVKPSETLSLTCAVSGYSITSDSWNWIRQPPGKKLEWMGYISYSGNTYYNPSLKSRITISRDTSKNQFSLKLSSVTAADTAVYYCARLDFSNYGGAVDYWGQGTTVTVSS VL: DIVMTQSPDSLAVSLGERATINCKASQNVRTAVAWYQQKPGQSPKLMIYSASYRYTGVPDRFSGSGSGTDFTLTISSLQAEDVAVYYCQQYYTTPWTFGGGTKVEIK
group label: y
//
binder: TIGIT-070-H2L3 (antibody, V domains shown, Humanized anti-TIGIT antibody) VH: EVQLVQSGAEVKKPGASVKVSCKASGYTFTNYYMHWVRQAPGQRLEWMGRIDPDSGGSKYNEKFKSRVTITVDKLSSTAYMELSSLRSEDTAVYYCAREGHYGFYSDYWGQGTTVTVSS VL: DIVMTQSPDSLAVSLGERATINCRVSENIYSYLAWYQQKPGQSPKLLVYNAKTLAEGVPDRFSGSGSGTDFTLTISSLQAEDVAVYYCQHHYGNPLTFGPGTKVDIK
group label: y
//
binder: TIGIT-006-H3L2 (antibody, V domains shown, Humanized anti-TIGIT antibody) VH: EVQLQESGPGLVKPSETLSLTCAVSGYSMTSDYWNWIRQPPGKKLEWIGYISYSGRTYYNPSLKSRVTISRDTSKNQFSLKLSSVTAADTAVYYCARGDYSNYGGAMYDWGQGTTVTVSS VL: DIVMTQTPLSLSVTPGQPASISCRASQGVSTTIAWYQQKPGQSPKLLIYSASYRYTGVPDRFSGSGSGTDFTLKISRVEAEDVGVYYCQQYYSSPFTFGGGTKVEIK
group label: n

[Q] State whether 0.4 nM exceeds IC50 recorded for TIGIT-002-H4L3 (antibody, V domains shown, Humanized anti-TIGIT antibody) VH: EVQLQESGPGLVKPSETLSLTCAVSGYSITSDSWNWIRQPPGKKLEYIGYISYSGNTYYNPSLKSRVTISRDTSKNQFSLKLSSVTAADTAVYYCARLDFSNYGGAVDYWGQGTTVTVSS VL: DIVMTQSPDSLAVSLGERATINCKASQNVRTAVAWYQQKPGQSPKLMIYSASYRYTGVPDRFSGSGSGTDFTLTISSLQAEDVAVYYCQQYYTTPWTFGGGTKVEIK .
[A] y

[Q] State whether 0.4 nM exceeds IC50 recorded for TIGIT-070-H2L2 (antibody, V domains shown, Humanized anti-TIGIT antibody) VH: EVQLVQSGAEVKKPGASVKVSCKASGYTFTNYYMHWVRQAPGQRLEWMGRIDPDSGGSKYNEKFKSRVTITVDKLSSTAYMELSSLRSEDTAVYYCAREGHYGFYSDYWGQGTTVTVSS VL: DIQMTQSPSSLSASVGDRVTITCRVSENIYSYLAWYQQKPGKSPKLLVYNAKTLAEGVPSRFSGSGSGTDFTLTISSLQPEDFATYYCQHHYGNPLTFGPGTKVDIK .
[A] n

[Q] State whether 0.4 nM exceeds IC50 recorded for TIGIT-005-H2L1b (antibody, V domains shown, Humanized anti-TIGIT antibody with NG-site mutation in VL) VH: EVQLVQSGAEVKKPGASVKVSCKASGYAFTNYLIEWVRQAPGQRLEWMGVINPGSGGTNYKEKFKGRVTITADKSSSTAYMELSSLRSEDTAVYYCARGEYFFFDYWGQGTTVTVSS VL: DIVMTQSPDSLAVSLGERATINCKASQHVSTGVAWYQHKPGQSPKLLIYSASYRYTGVPDRFSGSGSGTDFTLTISSLQAEDVAVYYCQQHYNTPHTFGGGTKVEIK .
[A] y

[Q] State whether 0.4 nM exceeds IC50 recorded for TIGIT-006-H5L1 (antibody, V domains shown, Humanized anti-TIGIT antibody) VH: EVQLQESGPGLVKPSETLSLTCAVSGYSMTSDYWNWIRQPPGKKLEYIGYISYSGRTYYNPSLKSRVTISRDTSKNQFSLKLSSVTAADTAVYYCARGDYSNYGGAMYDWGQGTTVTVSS VL: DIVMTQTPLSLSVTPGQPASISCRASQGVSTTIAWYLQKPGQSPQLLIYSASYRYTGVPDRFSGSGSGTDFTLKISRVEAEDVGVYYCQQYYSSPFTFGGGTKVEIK .
[A] n

[Q] State whether 0.4 nM exceeds IC50 recorded for TIGIT-005-H2L1d (antibody, V domains shown, Humanized anti-TIGIT antibody with NG-site mutation in VL) VH: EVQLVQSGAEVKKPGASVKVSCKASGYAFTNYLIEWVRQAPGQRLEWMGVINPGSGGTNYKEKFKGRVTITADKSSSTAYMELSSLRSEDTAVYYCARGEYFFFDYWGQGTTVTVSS VL: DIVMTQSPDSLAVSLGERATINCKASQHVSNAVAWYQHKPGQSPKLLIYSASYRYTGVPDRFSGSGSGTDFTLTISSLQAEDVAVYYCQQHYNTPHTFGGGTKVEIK .
[A] y
